target: full-length WT STING (Homo sapiens, UniProt Q86WV6, H232R); construct: made in house; host or cells: Trichoplusia ni insect cells, baculovirus generated in Sf21; crude membranes; test: 3H-cGAMP filtration binding assay (WT STING); settings: competition with tritiated cGAMP ligand; T. ni cell membranes overexpressing full-length WT STING
Sequence (Q86WV6 with tags, fused parts or gaps H232R): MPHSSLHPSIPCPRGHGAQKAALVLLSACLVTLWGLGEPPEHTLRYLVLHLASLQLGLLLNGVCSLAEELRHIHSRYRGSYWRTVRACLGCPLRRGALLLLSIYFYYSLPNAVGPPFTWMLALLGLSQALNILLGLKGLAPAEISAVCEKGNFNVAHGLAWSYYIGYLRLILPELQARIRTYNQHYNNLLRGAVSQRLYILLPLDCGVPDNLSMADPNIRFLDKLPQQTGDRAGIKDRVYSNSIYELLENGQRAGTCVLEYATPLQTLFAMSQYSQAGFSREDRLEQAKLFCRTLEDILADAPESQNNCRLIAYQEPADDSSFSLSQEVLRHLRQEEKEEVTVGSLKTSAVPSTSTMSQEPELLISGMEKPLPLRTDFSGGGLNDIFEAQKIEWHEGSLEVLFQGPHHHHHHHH
# 1 (yes) = EC50 below 400 nM (exclusive); 0 (no) = EC50 at/above 400 nM

- Nc1ncnc2c1ncn2[C@@H]1O[C@@H]2CO[P@@](=O)(S)O[C@@H]3[C@H](O)[C@@H](CO[P@](=O)(S)O[C@H]2[C@@H]1F)O[C@H]3n1ccc(=O)n2ccnc12: 0 (no)
- Nc1nc2c(nnn2[C@@H]2O[C@@H]3COP(=O)(S)O[C@H]4[C@H](F)[C@H](n5ccc6c(=O)[nH]cnc65)O[C@@H]4COP(=O)(S)O[C@@H]2C3)c(=O)[nH]1 (some centres unmarked): 1 (yes)
- Nc1ncnc2c1ncn2[C@@H]1O[C@@H]2COP(=O)(S)O[C@@H]3[C@H](O)[C@@H](COP(=O)(S)O[C@H]2[C@@H]1F)O[C@H]3n1cnc2c(=O)n3c(nc21)NC(=O)C3 (some centres unmarked): 0 (no)
- Nc1nc2c(ncn2[C@@H]2O[C@@H]3CO[P@](=O)(S)O[C@H]4[C@H](F)[C@H](n5ccc6c(=O)[nH]cnc65)O[C@@H]4CO[P@@](=O)(S)O[C@@H]2C3)c(=O)[nH]1: 1 (yes)
- Nc1nc2c(ncn2[C@@H]2O[C@@H]3COP(=O)(S)O[C@H]4[C@H](F)[C@H](n5ccc6c(=O)[nH]cnc65)O[C@@H]4COP(=O)(S)O[C@@H]2[C@@H]3F)c(=O)[nH]1 (single isomer, unassigned): 0 (no)

====

system: IFN-β secretion from THP1 cells; assay: IFN-β secretion in THP1 cell culture (5 h); assay type: cell-based, human; conditions: THP1 cells, 5 h incubation, compound at 30 μM; 30 uM cGAMP = 100%
Form field: % Effect at 30 μM relative to 2′3′-cGAMP (one value per entry).
QUANTITY KIND: % Effect at 30 μM relative to 2′3′-cGAMP (%)

• Nc1ncnc2c1ncn2[C@@H]1O[C@@H]2COP(=O)(S)O[C@H]3[C@H](F)[C@H](n4ccc5c(=O)[nH]cnc54)O[C@@H]3COP(=O)(S)O[C@@H]1C2 (single isomer, unassigned) [Example 47] = 13
• Nc1nc2c(ncn2[C@@H]2O[C@@H]3COP(=O)(S)O[C@H]4[C@H](F)[C@H](n5ccc6c(=O)[nH]cnc65)O[C@@H]4COP(=O)(S)O[C@@H]2[C@@H]3F)c(=O)[nH]1 (single isomer, unassigned) = 150
• Nc1ncnc2c1ncn2[C@@H]1O[C@@H]2COP(=O)(S)O[C@@H]3[C@H](O)[C@@H](COP(=O)(S)O[C@H]2[C@@H]1F)O[C@H]3n1cnc2c(=O)n3cc[nH]c3nc21 (single isomer, unassigned) [Example 16] = 281
• Nc1ncnc2c1ncn2[C@@H]1O[C@@]23CO[C@@H]1[C@@H]2OP(=O)(S)OC[C@H]1O[C@@H](n2cnc4c(=O)n5cc[nH]c5nc42)[C@H](OP(=O)(S)OC3)[C@@H]1F (single isomer, unassigned) [Example 27] = 143

====

target: full-length WT STING (Homo sapiens, UniProt Q86WV6, H232R); construct: made in house; host or cells: Trichoplusia ni insect cells, baculovirus generated in Sf21; crude membranes; assay: 3H-cGAMP filtration binding assay (WT STING); details: competition with tritiated cGAMP ligand; T. ni cell membranes overexpressing full-length WT STING
Hi! Could you tag entries with EC50 below 900 nM as yes (1), and those at or above as no (0)? Much appreciated.

• Nc1ncnc2c1ncn2[C@@H]1O[C@@H]2CO[P@@](=O)(S)O[C@@H]3[C@H](O)[C@@H](CO[P@@](=O)(S)O[C@H]2[C@H]1O)O[C@H]3n1ccc(=O)n2ccnc12 (single isomer, unassigned) [Example 1] = no (0)
• Nc1nc2c(nnn2[C@@H]2O[C@@H]3COP(=O)(S)O[C@H]4C[C@H](n5ccc6c(=O)[nH]cnc65)O[C@@H]4COP(=O)(S)O[C@@H]2C3)c(=O)[nH]1 (single isomer, unassigned) [Example 42] = yes (1)
• Nc1ncnc2c1nnn2[C@@H]1O[C@@H]2COP(=O)(S)O[C@@H]3[C@H](O)[C@@H](COP(=O)(S)O[C@H]2[C@@H]1F)O[C@H]3n1ccc(=O)n2ccnc12 (some centres unmarked) [Example 4] = no (0)
• Nc1nc2c(nnn2[C@@H]2O[C@@H]3COP(=O)(S)O[C@H]4C[C@H](n5ccc6c(=O)[nH]cnc65)O[C@@H]4COP(=O)(S)O[C@@H]2C3)c(=O)[nH]1 (single isomer, unassigned) [Example 43] = yes (1)
